Where these numbers come from: paper PMC12136788

Biological target: T1, UNK ZnF1-3 (human, UniProt Q9C0B0 31-174)
T1 sequence: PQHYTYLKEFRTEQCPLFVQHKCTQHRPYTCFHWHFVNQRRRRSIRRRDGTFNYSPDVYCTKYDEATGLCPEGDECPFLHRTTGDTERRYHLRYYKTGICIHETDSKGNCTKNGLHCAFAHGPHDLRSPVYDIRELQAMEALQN
Experiment: nsRBNS (natural sequence RNA bind-n-seq); RBNS binding buffer (assumed for nsRBNS): 25 mM Tris pH 7.5, 150 mM KCl, 3 mM MgCl2, 0.01% Triton X-100, 500 ug/ml BSA, 20 U/ml SUPERase-In, 4 C; UNK is unkempt and MSI1 is Musashi-1; names of the RNAs are library labels; protein concentration not given here; high values mean tight binding
The full ranking holds about 24,000 sequences; the median of “enrichment r” is about 0.99, and the highest 2% start at about 3.7. For the sample, the highest values were picked, then their nearest neighbours and some sequences at random.
MEASURED PROPERTY: binding signal (enrichment R)
Give just the numeric value; enrichment R need not be written.

chr1:34870196:34870197:-_ENSMUSG00000037503_ENSMUST00000047534|mus_mus|motif|central (ssRNA) RNA: GGGAGUUCUACAGUCCGACGAUCUGAGCCCAUCUACUCAUCAGAUUGCAUAAAAAAUUAAAACAGUAUGAAUUUACAUCGGAUUGAACUGGCUUGGGAUGGACAGUCUGCCCGUUCCUUUGUUUUGACACAUAAGUUCCAUGACAACAGAGGAUUGAGCAUCA : 1.36

Which binding signal reading was recorded for the binder chr5:95152273:95152274:-_ENSG00000173221_ENST00000237858|hu_mus|motif|central (ssRNA) RNA: GGGAGUUCUACAGUCCGACGAUCCAGCCGAGUCAUCAGCUCCCCAGUCUGUUGCAUGGAGAUUAGAUCACUGCAUCCGCCGGUGCAGUCUUUACCUAUGAAGACCCGAGGAACUGUUCUCGCUCCGGUGAGCUGUUGUAAAUACAACAGAGGAUUGAGCAUCA ?
1.01

Can you handle chrX:41000244:41000245:+_ENSG00000124486_ENST00000378308|hu_mus|motif|central (ssRNA) RNA: GGGAGUUCUACAGUCCGACGAUCUGCUUCUUUCUUCAGCUCUUCAUCAGUUAAGUUUUCUAAAAACUGUGGAACCAUUUCGGUUAUUGGAAGAAAGUACUUUUUCACUGUGUGAAGAGUAAGAAACUCAUAGCACUGUCCAAACAACAGAGGAUUGAGCAUCA next?
0.545
